molecular target: Apelin receptor (Homo sapiens) (UniProt P35414); assay: apelin receptor inhibitors, concentration-response – cell-based, luminescence, uHTS hits, dose response (AID 2784); conditions: APJ beta-arrestin recruitment, antagonist mode
Sequence (P35414 whole entry, looked up): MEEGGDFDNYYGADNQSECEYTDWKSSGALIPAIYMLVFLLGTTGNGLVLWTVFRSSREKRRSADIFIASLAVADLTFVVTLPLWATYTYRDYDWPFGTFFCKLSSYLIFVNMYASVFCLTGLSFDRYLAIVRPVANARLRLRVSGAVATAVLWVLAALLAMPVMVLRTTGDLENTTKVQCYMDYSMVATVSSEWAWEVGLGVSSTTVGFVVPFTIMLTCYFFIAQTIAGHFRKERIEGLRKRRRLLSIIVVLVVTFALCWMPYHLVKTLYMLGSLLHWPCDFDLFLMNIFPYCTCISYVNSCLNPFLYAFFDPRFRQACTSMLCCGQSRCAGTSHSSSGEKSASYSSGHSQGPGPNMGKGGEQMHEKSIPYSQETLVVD
The source made the active and inactive calls. No rule for the calls is given here.
Outcomes: T for active, F for inactive

[[record]]
compound = "CC1=NN(c2ccc(C)cc2)C(=O)/C1=C/c1ccc(-c2cc([N+](=O)[O-])ccc2O)o1"
qualitative_label = "F"

[[record]]
compound = "CN(/N=C/c1cc([N+](=O)[O-])ccc1O)c1ccccc1"
qualitative_label = "F"

[[record]]
compound = "COc1ccc2c(c1)C(=O)[C@H](O)[C@@H](c1ccc(OC)c(Br)c1)O2"
qualitative_label = "T"

[[record]]
compound = "COC(=O)C1NN=C(C(=O)c2ccc(Cl)cc2)C1c1ccc(OC)cc1 (configuration not stated)"
qualitative_label = "T"

[[record]]
compound = "CC1=NN(C(N)=S)C(=O)C1N=Nc1ccc([N+](=O)[O-])cc1 (configuration not stated)"
qualitative_label = "F"

[[record]]
compound = "CCOC(=O)C1=NNC(C(=O)c2ccc(Cl)cc2)C1c1ccccc1 (configuration not stated)"
qualitative_label = "T"

[[record]]
compound = "Cn1c(O)c(N=Nc2nc(-c3ccccc3)cs2)c2ccccc21"
qualitative_label = "F"

[[record]]
compound = "Cc1ncc(CO)c(/C=N/Nc2ccc(C(F)(F)F)cn2)c1O"
qualitative_label = "T"

[[record]]
compound = "COc1ccc(NS(=O)(=O)c2cc([N+](=O)[O-])ccc2N/N=C\\c2c(C)[nH]c3ccccc23)cc1"
qualitative_label = "F"

[[record]]
compound = "O=C(CCCC(=O)Nc1cccc(Br)c1)N/N=C/c1cc([N+](=O)[O-])ccc1O"
qualitative_label = "F"

[[record]]
compound = "CCOC(=O)C1=C(C)NC2=C(C(=O)CC(c3cccs3)C2)C1c1cccs1 (configuration not stated)"
qualitative_label = "F"

[[record]]
compound = "COc1ccc2c(c1)C(=O)[C@@H](O)[C@H](c1ccc(OC)c(Br)c1)O2"
qualitative_label = "F"

